- TESTED SYSTEM: Coagulation factor X (Bos taurus, UniProt P00743)
- Sequence (P00743 41-180 limits assumed): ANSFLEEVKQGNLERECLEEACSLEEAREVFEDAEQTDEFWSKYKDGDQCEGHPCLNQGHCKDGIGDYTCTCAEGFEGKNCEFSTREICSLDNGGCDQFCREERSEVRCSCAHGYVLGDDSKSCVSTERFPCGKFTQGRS
- Sequence (P00743 234-492 limits assumed): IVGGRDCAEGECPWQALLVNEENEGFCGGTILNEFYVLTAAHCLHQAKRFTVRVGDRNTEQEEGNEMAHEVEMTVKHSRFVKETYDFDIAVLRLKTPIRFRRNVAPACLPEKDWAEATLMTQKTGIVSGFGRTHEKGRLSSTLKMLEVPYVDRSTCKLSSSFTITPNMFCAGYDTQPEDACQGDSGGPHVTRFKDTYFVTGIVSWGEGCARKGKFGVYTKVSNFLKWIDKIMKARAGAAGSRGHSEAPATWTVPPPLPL
- ASSAY INFO: Inhibition of bovine plasma factor 10a using CH3OCO-D-CHA-Gly-Arg-pNA.AcoH substrate
MEASURED PROPERTY: Ki

[[record]]
structure_smiles = "N=C(N)c1ccc(Oc2cc(Oc3ccc(C(=N)N)cc3)cc(C(=O)N3CCC(CCN)CC3)c2)cc1"
measured_property = "Ki"
value_measured = "1290 nM"

[[record]]
structure_smiles = "N=C(N)c1ccc(Oc2cc(Oc3ccc(C(=N)N)cc3)cc(C(=O)N[C@H]3CC[C@H](N)CC3)c2)cc1"
measured_property = "Ki"
value_measured = "516 nM"

[[record]]
structure_smiles = "N=C(N)c1ccc(Oc2cc(OCc3ccc(Br)cc3)cc(C(=O)N[C@H]3CC[C@H](N)CC3)c2)cc1"
measured_property = "Ki"
value_measured = "2090 nM"

[[record]]
structure_smiles = "CCOC(=O)N1CCC(NC(=O)c2cc(Oc3ccc(C(=N)N)cc3)cc(Oc3ccc(C(=N)N)cc3)c2)CC1"
measured_property = "Ki"
value_measured = "1030 nM"


---

- TESTED SYSTEM: Cytochrome P450 3A4 (Homo sapiens, UniProt P08684)
- Sequence (P08684 whole entry): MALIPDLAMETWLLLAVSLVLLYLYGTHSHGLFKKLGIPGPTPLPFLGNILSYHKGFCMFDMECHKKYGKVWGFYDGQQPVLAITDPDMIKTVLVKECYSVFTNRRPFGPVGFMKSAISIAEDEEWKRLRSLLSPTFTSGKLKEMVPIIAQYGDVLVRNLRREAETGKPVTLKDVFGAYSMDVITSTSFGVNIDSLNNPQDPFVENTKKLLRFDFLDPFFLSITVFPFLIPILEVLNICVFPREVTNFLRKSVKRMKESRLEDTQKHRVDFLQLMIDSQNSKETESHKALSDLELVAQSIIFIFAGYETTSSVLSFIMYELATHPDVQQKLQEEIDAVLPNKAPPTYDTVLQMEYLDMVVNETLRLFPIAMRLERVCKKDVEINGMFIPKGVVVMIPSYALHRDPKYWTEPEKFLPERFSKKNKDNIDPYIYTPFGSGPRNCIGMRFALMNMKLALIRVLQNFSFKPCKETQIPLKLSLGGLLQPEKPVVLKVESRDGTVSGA
- ASSAY INFO: Inhibition of CYP3A4 (unknown origin)
- Assay type: ADME
Reported values of IC50 for individual entries
MEASURED PROPERTY: IC50

[[record]]
structure_smiles = "N=C(N)c1ccc(Oc2cc(Oc3ccc(C(=N)N)cc3)cc(C(=O)O[C@H]3CC[C@H](N)CC3)c2)cc1"
measured_property = "IC50"
value_measured = "> 30 µM"

[[record]]
structure_smiles = "N=C(N)c1ccc(Oc2cc(NC(=O)[C@H]3CC[C@H](N)CC3)cc(Oc3ccc(C(=N)N)cc3)c2)cc1"
measured_property = "IC50"
value_measured = "> 30 µM"

[[record]]
structure_smiles = "N=C(N)c1ccc(Oc2cc(Oc3ccc(C(=N)N)cc3)cc(C(=O)N[C@H]3CC[C@H](N)CC3)c2)cc1"
measured_property = "IC50"
value_measured = "> 30 µM"


---

- TESTED SYSTEM: Trypsin (Homo sapiens, UniProt P07477+P07478+P35030)
- ASSAY INFO: Inhibition of human pancreas Trypsin using Boc-Gln-Ala-Arg-7-amido-4-methyl coumarin hydrobromide
- Type: protein assay
MEASURED PROPERTY: Ki

[[record]]
compound = "NCc1ccc(Oc2cc(Oc3ccc(CN)cc3)cc(C(=O)N[C@H]3CC[C@H](N)CC3)c2)cc1"
measured_property = "Ki"
value_measured = "3850 nM"

[[record]]
compound = "N=C(N)c1ccc(Oc2cc(Oc3ccc(C(=N)N)cc3)cc(C(=O)N[C@H]3CC[C@H](N)CC3)c2)cc1"
measured_property = "Ki"
value_measured = "1625 nM"

[[record]]
compound = "CC1CCC(NC(=O)c2cc(Oc3ccc(C(=N)N)cc3)cc(Oc3ccc(C(=N)N)cc3)c2)CC1 (configuration not stated)"
measured_property = "Ki"
value_measured = "253 nM"

[[record]]
compound = "N=C(N)c1ccc(Oc2cc(Oc3ccc(C(=N)N)cc3)cc(C(=O)N3CCC4CCCCC4C3)c2)cc1 (configuration not stated)"
measured_property = "Ki"
value_measured = "232 nM"

[[record]]
compound = "N=C(N)c1ccc(Oc2cc(Oc3ccc(C(=N)N)cc3)cc(C(=O)N3CCC(CCN)CC3)c2)cc1"
measured_property = "Ki"
value_measured = "545 nM"

[[record]]
compound = "N=C(N)c1ccc(Oc2cc(Oc3ccc(C(=N)N)cc3)cc(C(=O)N3CCc4ccccc4C3)c2)cc1"
measured_property = "Ki"
value_measured = "225 nM"

[[record]]
compound = "N=C(N)c1ccc(Oc2cc(Oc3ccc(C(=N)N)cc3)cc(C(=O)NC3CCN(CCCN)CC3)c2)cc1"
measured_property = "Ki"
value_measured = "1035 nM"

[[record]]
compound = "N=C(N)c1ccc(Oc2cc(Oc3ccc(C(=N)N)cc3)cc(C(=O)O[C@H]3CC[C@H](N)CC3)c2)cc1"
measured_property = "Ki"
value_measured = "264 nM"

[[record]]
compound = "N=C(N)c1ccc(Oc2cc(Oc3ccc(C(=N)N)cc3)cc(C(=O)NCC3CCC(O)CC3)c2)cc1 (configuration not stated)"
measured_property = "Ki"
value_measured = "1550 nM"

[[record]]
compound = "N=C(N)c1ccc(Oc2cc(NC(=O)C3CCN(CCN)CC3)cc(Oc3ccc(C(=N)N)cc3)c2)cc1"
measured_property = "Ki"
value_measured = "1338 nM"

[[record]]
compound = "N=C(N)c1ccc(Oc2cc(Oc3ccc(C(N)=O)cc3)cc(C(=O)N[C@H]3CC[C@H](N)CC3)c2)cc1"
measured_property = "Ki"
value_measured = "> 3000 nM"

[[record]]
compound = "N=C(N)c1ccc(Oc2cc(Oc3ccc(C(=N)N)cc3)cc(C(=O)N3CCC(C(=O)O)CC3)c2)cc1"
measured_property = "Ki"
value_measured = "718 nM"

[[record]]
compound = "N=C(N)c1ccc(Oc2cc(NS(=O)(=O)c3ccc(F)cc3)cc(Oc3ccc(C(=N)N)cc3)c2)cc1"
measured_property = "Ki"
value_measured = "1388 nM"

[[record]]
compound = "CC1CCC(C(=O)Nc2cc(Oc3ccc(C(=N)N)cc3)cc(Oc3ccc(C(=N)N)cc3)c2)CC1 (configuration not stated)"
measured_property = "Ki"
value_measured = "516 nM"

[[record]]
compound = "N=C(N)c1ccc(Oc2cc(OCc3cccc(C(=N)N)c3)cc(C(=O)N[C@H]3CC[C@H](N)CC3)c2)cc1"
measured_property = "Ki"
value_measured = "1541 nM"

[[record]]
compound = "CCOC(=O)N1CCC(NC(=O)c2cc(Oc3ccc(C(=N)N)cc3)cc(Oc3ccc(C(=N)N)cc3)c2)CC1"
measured_property = "Ki"
value_measured = "471 nM"

[[record]]
compound = "N=C(N)c1ccc(Oc2cc(Oc3ccc(N)cc3)cc(C(=O)N[C@H]3CC[C@H](N)CC3)c2)cc1"
measured_property = "Ki"
value_measured = "> 3000 nM"

